# Tested on: Plasmodium berghei
# ASSAY_PROCEDURE: Suppressive blood schizonticidal antimalarial activity evaluated in the trophozoite-induced Plasmodium berghei infection in mice (Mus musculus) at a dose 640 mg/kg given as number of toxic deaths
# Assay type: toxicity, organism-based
# Design: dose 640 mg/kg
# ASSAY_CONTEXT: in vivo
# Toxic deaths per entry

Check out these entries, answers already filled in.
COMPOUND: CCCCOc1c(OC)cc(NC(C)CCCN)c2ncccc12 (stereo not drawn)
Toxic deaths: 5

COMPOUND: COc1cc(NC(C)CCCN)c2nc(C)ccc2c1 (stereo not drawn)
Toxic deaths: 5

COMPOUND: COc1cc(NC(C)CCCN)c2nccc(C)c2c1OCCCCCCOc1ccccc1 (stereo not drawn)
Toxic deaths: 2

COMPOUND: CCCOc1c(OC)cc(NC(C)CCCN)c2nccc(C)c12 (stereo not drawn)
Toxic deaths: 5

Data request: Answer briefly: Toxic deaths recorded on Plasmodium berghei for COc1cc(NC(C)CCCN)c2nccc(C)c2c1OC1CCCC1 (stereo not drawn)
Data returned: 5

Data request: Fill: Toxic deaths (Plasmodium berghei) for this compound CCCCCCOc1c(OC)cc(NC(C)CCCN)c2nc(C)ccc12 (stereo not drawn)
Data returned: 3

Data request: Specify the recorded Toxic deaths for COc1cc(NC(C)CCCN)c2ncc(C)cc2c1 (stereo not drawn) , system: Plasmodium berghei.
Data returned: 5

Data request: Please tell me the measured Toxic deaths for CCCCCCOc1c(OC)cc(NC(C)CCCN)c2nccc(C)c12 (stereo not drawn) ; system: Plasmodium berghei.
Data returned: 5

* * *

# Tested on: Mus musculus
# ASSAY_PROCEDURE: Suppressive blood schizonticidal antimalarial activity evaluated in the trophozoite-induced Plasmodium berghei infection in mice (Mus musculus) at a dose 40 mg/kg
# Assay type: functional
# Set-up: unit not given beside the values
The compounds listed here are annotated with their Delta MST.
The answer should be a number; do not append a unit.

Sample records with Delta MST:
COMPOUND: CCCCOc1c(OC)cc(NC(C)CCCN)c2ncccc12 (stereo not given)
TARGET_ENTITY: Mus musculus
Delta MST: 6.7
--
COMPOUND: CCCOc1c(OC)cc(NC(C)CCCN)c2ncccc12 (stereo not given)
TARGET_ENTITY: Mus musculus
Delta MST: 8.3
--
COMPOUND: CCCCCCCCCCOc1c(OC)cc(NC(C)CCCN)c2ncccc12 (stereo not given)
TARGET_ENTITY: Mus musculus
Delta MST: 0.1
--
COMPOUND: CCOc1c(OC)cc(NC(C)CCCN)c2ncccc12 (stereo not given)
TARGET_ENTITY: Mus musculus
Delta MST: 0.3

API: the following record is the query input.
Data request: Identify measured Delta MST corresponding to COc1cc(NC(C)CCCN)c2nccc(C)c2c1 (stereo not given)
Data returned: 4.9
